# Measurement Target: T1, mouse IL-25 expressed with a C-terminal myc-myc-hexahistidine tag (mouse)
# T1 construct: also called Mouse IL-25-MMH; mIL-25-MMH
# T1 chain: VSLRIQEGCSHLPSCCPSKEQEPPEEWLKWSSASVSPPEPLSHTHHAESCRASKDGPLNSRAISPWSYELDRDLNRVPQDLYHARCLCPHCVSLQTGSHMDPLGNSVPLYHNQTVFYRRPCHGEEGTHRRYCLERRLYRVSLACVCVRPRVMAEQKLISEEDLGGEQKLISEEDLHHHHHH
# Assay Method Text: SPR Biacore, antibody captured, 37C;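 note: Real-time sensorgrams of IL-25-MMH binding to purified anti-IL-25 antibodies, rate constants obtained by fitting a 1:1 binding model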
Would you mind telling me the reported koff of each entry?
Enter your answer as a number in s⁻¹; do not include the unit.

Query block: Return reported koff. Input binder: H4H10863P (antibody, human IgG4, V domains shown, H4H prefix = human IgG4 Fc) VH: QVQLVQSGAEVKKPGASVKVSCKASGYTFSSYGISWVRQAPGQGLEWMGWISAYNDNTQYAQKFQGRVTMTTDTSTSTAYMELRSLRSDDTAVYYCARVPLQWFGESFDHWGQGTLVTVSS VL: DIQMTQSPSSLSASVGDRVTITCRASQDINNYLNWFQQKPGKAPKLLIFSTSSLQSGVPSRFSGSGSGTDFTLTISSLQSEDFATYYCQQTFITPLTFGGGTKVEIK
Result block: 0.000153

Query block: # return recorded koff for entry H4H10871P (antibody, human IgG4, V domains shown, H4H prefix = human IgG4 Fc) VH: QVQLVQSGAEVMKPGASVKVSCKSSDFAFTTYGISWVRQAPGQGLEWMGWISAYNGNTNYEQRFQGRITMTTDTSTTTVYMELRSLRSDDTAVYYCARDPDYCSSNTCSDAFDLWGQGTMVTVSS VL: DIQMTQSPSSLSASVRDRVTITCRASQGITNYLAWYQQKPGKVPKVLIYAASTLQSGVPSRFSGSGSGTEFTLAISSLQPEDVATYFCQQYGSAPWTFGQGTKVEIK
Result block: 8.29e-05

Query block: In one line, give reported koff of the entry H4H10876P (antibody, human IgG4, V domains shown, H4H prefix = human IgG4 Fc) VH: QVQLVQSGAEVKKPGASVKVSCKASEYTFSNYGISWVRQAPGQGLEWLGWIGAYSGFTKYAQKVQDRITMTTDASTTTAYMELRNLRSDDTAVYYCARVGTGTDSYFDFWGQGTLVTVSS VL: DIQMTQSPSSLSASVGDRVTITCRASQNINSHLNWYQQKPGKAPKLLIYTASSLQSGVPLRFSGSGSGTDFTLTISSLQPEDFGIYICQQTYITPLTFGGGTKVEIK .
Result block: 8.97e-05
